- target-desc: ASCL1; also: reference of the scale not given here
- protocol-details: pooled miR-30 sensor sort-seq; sequence = guide strand
- experimental-conditions: shRNA
Label rule, in plain words: sensor-assay potency score (higher = more potent) of -0.9 and up is 1, under -0.9 is 0.

Observe how each entry below is paired with its result.
Enquiry: Would you say TTTGAGTTTGGACAGTAGCTGC shows sensor-assay potency score (higher = more potent) at minimum -0.9?
Return: 1

Enquiry: Confirm if sensor-assay potency score (higher = more potent) reported for the sequence TTACTCATCTTCTTGTTGGCCG is -0.9 or above.
Return: 1

Enquiry: Is sensor-assay potency score (higher = more potent) for ATGCTCGTCCAGCAGCTGCTGC at or above -0.9?
Return: 0

Enquiry: Can TTGGAGTGCAAAGATACTGTTC be said to have sensor-assay potency score (higher = more potent) at or above -0.9?
Return: 1

Enquiry: Check the entry TTGGGCGCTGACTTGTGACCGC : does sensor-assay potency score (higher = more potent) equal or exceed -0.9?
Return: 1

Enquiry: Does sensor-assay potency score (higher = more potent) meet or surpass -0.9 for TAATACATTAACAACATTTCTA ?
Return: 1

Enquiry: Tell me whether sensor-assay potency score (higher = more potent) is at least -0.9 here: TAAACCATTTGTACAAAACTTC
Return: 1

Enquiry: Is sensor-assay potency score (higher = more potent) for TACTCATCTTCTTGTTGGCCGC at or above -0.9?
Return: 1

Enquiry: Kindly determine if sensor-assay potency score (higher = more potent) recorded for TTTGCAGCGCATCAGTTCGGGC is above or exactly -0.9.
Return: 0

Enquiry: Threshold query (sensor-assay potency score (higher = more potent) >= -0.9) on TTGGTGCTGAAGTACAACTGGT
Return: 1

More entries:
Enquiry: Is sensor-assay potency score (higher = more potent) for TGTCGCTTGACTTGCTTGGGCG at or above -0.9?
Return: 0

Enquiry: Threshold query (sensor-assay potency score (higher = more potent) >= -0.9) on ATGGAGTTCAAGTCGTTGGAGT
Return: 0
